target: Sodium channel protein type 2 subunit alpha (Homo sapiens); test: Inhibition of full length human Nav1.2 channel expressed in HEK cells co-expressing human sodium channel subunit beta1 at holding potential -35 mV by automated voltage clamp analysis
Sequence (Q99250 whole entry): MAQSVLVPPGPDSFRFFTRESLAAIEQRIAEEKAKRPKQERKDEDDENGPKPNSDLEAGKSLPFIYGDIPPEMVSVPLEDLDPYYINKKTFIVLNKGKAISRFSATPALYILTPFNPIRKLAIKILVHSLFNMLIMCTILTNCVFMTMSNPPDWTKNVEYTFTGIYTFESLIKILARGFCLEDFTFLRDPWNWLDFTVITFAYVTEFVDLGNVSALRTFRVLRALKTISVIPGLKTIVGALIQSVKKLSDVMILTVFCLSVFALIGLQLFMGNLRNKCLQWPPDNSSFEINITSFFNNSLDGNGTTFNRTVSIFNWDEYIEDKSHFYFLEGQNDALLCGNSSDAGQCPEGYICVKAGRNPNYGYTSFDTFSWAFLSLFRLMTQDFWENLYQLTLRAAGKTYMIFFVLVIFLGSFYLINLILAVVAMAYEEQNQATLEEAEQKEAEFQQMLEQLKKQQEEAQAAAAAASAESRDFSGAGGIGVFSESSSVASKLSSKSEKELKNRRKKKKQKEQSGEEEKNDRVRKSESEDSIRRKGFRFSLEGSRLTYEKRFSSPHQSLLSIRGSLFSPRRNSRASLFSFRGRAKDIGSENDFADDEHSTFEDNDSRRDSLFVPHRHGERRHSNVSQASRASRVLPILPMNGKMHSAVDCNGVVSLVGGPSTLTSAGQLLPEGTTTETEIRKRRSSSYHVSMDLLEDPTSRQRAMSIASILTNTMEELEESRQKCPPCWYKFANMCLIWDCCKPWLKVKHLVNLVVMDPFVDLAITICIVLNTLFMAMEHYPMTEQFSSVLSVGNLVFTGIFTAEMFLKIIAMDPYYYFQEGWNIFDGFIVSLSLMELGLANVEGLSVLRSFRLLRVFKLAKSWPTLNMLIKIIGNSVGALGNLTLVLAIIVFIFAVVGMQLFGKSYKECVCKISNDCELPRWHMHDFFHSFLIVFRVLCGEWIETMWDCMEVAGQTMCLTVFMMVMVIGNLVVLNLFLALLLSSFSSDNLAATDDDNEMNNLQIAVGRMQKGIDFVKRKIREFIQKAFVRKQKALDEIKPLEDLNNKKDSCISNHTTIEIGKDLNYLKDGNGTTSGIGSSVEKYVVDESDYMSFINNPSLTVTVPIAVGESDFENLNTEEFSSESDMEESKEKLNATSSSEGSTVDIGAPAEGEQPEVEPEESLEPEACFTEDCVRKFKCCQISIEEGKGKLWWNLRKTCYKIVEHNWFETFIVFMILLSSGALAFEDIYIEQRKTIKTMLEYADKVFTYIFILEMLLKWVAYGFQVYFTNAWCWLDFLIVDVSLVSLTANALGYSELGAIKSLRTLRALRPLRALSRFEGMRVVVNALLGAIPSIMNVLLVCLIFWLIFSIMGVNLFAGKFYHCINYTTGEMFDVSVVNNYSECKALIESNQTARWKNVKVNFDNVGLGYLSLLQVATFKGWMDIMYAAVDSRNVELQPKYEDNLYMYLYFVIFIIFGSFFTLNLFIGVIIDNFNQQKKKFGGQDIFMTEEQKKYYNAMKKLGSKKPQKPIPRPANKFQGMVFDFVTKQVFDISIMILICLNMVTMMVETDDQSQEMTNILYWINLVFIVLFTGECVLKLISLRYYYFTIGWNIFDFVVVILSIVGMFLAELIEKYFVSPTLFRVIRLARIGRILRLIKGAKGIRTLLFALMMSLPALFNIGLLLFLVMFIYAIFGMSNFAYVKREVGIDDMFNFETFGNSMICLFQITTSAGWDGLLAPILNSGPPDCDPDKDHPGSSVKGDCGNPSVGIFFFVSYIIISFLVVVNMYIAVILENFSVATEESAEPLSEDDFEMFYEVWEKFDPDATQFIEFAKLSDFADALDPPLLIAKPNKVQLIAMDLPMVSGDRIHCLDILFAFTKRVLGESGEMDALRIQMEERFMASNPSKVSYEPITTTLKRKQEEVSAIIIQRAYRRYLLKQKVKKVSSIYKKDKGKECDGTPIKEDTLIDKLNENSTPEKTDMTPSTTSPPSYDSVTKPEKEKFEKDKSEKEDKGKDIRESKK
Each item that follows carries a reported IC50.
State the answer as a number, implicitly in nM.

Mol smiles: Nc1noc2ccc(-c3cc(Cl)ccc3Oc3cc(F)c(S(=O)(=O)Nc4ncns4)cc3F)cc12
IC50, nM: 4.2

Below: the item to evaluate.
q: Bench note: what IC50 did `Nc1nc2cc(-c3cc(Cl)ccc3Oc3cc(F)c(S(=O)(=O)Nc4ncns4)cc3F)ccc2[nH]1` show?
a: 0.2

###

biological target: Sodium channel protein type 5 subunit alpha (Homo sapiens, UniProt Q14524); assay: Inhibition of full length human Nav1.5 channel expressed in HEK cells co-expressing human sodium channel subunit beta1 at holding potential -60 mV by automated voltage clamp analysis
Sequence (Q14524 whole entry): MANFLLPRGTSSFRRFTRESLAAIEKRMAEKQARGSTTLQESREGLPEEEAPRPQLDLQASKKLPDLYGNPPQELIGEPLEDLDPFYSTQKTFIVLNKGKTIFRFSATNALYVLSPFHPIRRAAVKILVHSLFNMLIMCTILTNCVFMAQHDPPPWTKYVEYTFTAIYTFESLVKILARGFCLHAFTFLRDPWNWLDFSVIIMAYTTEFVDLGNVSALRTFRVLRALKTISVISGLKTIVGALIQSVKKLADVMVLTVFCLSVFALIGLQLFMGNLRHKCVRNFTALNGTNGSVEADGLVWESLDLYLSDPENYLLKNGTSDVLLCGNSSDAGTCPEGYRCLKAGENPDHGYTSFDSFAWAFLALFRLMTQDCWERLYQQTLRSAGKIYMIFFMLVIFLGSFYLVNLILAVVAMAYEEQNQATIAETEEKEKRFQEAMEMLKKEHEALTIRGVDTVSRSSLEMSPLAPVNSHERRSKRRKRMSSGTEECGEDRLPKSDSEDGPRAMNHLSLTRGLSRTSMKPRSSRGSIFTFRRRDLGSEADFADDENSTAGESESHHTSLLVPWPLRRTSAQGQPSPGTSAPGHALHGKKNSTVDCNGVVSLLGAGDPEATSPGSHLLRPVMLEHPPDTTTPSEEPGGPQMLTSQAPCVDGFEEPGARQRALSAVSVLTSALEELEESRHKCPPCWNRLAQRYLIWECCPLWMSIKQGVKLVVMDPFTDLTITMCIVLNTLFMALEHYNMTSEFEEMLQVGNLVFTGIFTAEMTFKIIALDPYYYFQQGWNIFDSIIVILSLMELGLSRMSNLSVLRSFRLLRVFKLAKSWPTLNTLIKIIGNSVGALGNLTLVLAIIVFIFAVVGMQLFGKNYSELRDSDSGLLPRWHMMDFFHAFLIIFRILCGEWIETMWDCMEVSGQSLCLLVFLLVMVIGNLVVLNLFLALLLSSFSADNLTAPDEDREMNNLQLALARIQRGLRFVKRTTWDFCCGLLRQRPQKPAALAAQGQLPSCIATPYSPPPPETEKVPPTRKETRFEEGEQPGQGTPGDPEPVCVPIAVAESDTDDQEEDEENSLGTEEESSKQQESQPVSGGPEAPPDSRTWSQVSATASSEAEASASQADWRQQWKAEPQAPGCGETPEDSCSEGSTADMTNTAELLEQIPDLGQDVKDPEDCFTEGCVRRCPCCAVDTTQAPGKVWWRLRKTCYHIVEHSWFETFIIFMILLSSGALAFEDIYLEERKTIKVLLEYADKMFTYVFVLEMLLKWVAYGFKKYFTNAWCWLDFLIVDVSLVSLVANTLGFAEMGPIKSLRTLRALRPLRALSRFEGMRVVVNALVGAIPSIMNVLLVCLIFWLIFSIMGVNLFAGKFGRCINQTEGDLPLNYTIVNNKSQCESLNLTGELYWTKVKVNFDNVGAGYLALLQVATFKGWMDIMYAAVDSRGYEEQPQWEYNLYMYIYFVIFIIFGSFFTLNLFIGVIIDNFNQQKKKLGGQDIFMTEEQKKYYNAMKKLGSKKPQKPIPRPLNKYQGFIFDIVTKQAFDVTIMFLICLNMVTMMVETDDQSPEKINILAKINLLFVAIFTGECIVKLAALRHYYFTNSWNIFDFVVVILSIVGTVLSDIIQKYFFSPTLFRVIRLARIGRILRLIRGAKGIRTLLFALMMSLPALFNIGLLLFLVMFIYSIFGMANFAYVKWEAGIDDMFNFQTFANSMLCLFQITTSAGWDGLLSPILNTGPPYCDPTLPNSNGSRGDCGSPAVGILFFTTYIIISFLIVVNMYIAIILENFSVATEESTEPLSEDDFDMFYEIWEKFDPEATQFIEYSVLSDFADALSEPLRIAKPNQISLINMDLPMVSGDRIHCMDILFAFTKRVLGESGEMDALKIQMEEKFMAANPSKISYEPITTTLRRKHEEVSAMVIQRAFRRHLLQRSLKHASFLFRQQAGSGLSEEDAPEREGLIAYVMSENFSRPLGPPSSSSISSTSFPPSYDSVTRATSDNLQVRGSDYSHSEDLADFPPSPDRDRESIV
IC50 reference

Solved entries:
Mol smiles: O=S(=O)(Nc1ncns1)c1cc(F)c(Oc2ccc(Cl)cc2-c2ccc3nccnc3c2)cc1F
IC50: > 10 µM
//
Mol smiles: O=S(=O)(Nc1ncns1)c1cc(F)c(Oc2ccc(Cl)cc2-c2cnc3n2CCNC3)cc1F
IC50: > 10 µM

Please look at the following compound next.
q: // IC50 lookup, key: `Nc1n[nH]c2ccc(-c3cc(Cl)ccc3Oc3cc(F)c(S(=O)(=O)Nc4ncns4)cc3F)cc12`
a: > 10 µM
